# assay-summary: A CellTox Green Cytotoxicity Assay to monitor cytotoxicity in HepG2 cells - 32 hour (AID 1224883); also: % is scaled to controls: 0 for no effect and ±100 for the full control effect; nearly all actives have a fitted effect of over 50% in size
# condition-summary: CellTox Green fluorescence; series mostly up to 76.8 µM
# Description: National Center for Advancing Translational Sciences [NCATS] NIH Chemical Genomics Center [NCGC] U.S. Environmental Protection Agency [EPA] National Institutes of Environmental Health Sciences [NIEHS] National Toxicology Program [NTP] Cell-based models are critical for drug discovery. […] Viable cells produce no appreciable increases in fluorescence. Therefore, the fluorescence signal produced by the binding interaction with dead cell DNA is proportional to cytotoxicity. […]
Results filed as inconclusive are left out. Calls of active or inactive are those of the source. Calls follow the shape of the dose curve; as a rule, active = well fitted activation curve with a large enough effect in the repeat runs; inconclusive = weak or mixed curves; inactive = flat fitted curve, though single readings scatter.
reported-property: outcome

Solved cases (5 shown):
COc1ccc(NC(C)=O)cc1 :: inactive
O=C(O)c1ccccc1S :: inactive
O=C1C(CCS(=O)c2ccccc2)C(=O)N(c2ccccc2)N1c1ccccc1 (centres undefined) :: inactive
CC(CCO)CCCC(C)(C)O (centres undefined) :: inactive
c1ccc2cnncc2c1 :: inactive

Data request: Annotate the compound CO with its measured outcome.
Data returned: inactive

Data request: Annotate the compound OC[C@H]1O[C@@H]2O[C@H]3[C@H](O)[C@@H](O)[C@@H](O[C@H]4[C@H](O)[C@@H](O)[C@@H](O[C@H]5[C@H](O)[C@@H](O)[C@@H](O[C@H]6[C@H](O)[C@@H](O)[C@@H](O[C@H]7[C@H](O)[C@@H](O)[C@@H](O[C@H]8[C@H](O)[C@@H](O)[C@@H](O[C@H]9[C@H](O)[C@@H](O)[C@@H](O[C@H]1[C@H](O)[C@H]2O)O[C@@H]9CO)O[C@@H]8CO)O[C@@H]7CO)O[C@@H]6CO)O[C@@H]5CO)O[C@@H]4CO)O[C@@H]3CO with its measured outcome.
Data returned: inactive

Data request: Annotate the compound CC1=CC(C)C(C=O)C(C)C1 (centres undefined) with its measured outcome.
Data returned: inactive

----------
# target-under-test: Androgen receptor (Homo sapiens) (UniProt P10275)
# Sequence (P10275 whole entry, looked up): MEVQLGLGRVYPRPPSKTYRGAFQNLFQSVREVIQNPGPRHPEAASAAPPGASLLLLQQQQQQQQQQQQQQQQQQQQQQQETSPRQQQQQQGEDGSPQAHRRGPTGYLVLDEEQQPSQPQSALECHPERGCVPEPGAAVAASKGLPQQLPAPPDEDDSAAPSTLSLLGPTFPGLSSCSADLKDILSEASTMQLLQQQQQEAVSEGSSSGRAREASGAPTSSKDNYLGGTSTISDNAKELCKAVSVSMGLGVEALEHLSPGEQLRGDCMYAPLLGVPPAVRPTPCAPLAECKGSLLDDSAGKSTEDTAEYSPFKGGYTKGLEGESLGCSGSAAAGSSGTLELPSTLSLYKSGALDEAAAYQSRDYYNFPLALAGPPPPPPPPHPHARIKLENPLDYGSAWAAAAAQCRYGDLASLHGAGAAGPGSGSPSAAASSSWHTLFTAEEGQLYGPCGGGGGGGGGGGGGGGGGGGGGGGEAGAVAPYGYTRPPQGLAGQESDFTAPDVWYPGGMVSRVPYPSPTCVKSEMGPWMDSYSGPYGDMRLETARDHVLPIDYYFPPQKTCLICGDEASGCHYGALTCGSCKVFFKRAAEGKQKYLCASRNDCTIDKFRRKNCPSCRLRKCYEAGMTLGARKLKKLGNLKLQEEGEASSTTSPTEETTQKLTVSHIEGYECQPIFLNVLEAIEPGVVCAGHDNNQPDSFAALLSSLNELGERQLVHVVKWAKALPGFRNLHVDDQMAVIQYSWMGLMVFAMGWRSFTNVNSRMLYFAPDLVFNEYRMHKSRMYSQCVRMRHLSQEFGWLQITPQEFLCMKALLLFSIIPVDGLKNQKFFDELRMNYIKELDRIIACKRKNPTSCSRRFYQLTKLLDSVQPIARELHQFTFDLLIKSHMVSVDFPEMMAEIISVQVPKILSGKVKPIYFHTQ
# assay-summary: qHTS assay to identify small molecule agonists of the androgen receptor (AR) signaling pathway in the presence of an antagonist (AID 1259381); also: % is scaled to controls: 0 for no effect and ±100 for the full control effect; nearly all actives have a fitted effect of over 15% in size
# condition-summary: MDA-kb2 MMTV-luciferase, AR agonist + nilutamide, 16 h; series mostly up to 42.5 µM
The source made the active and inactive calls. The call rests on the fitted dose curve.
Pick one and only one: class 1 for active, class 0 for inactive

Please review the entries below; each comes with its answer.
CCCCNc1ccccc1 :: class 0
COc1ccc2cc(C=O)ccc2c1 :: class 0
CC(C)CCCC(C)NCCC(C)C (stereo unspecified) :: class 0

Data request: Hello, I am checking results. What call was entered for Cc1nc(-c2ccc(OCC(C)C)c(C#N)c2)sc1C(=O)O ?
Data returned: class 0

Data request: Hello, I am checking results. What call was entered for O=C1CC2(CCCC2)CC(=O)N1 ?
Data returned: class 0

Data request: Hello, I am checking results. What call was entered for CCN1CCCC1CNC(=O)c1cc(S(N)(=O)=O)ccc1OC (stereo unspecified) ?
Data returned: class 0

----------
# assay-summary: qHTS assay to identify small molecule antagonists of the thyroid receptor (TR) signaling pathway - cell viability counter screen (AID 743064); also: % is scaled to controls: 0 for no effect and ±100 for the full control effect; nearly all actives have a fitted effect of over 50% in size
# condition-summary: GH3.TRE-Luc viability, CellTiter-Fluor, 24 h; series mostly up to 70.3 µM
Inconclusive results are not listed. Calls of active or inactive are those of the source. The call rests on the fitted dose curve; in most records, active means well fitted cell-killing curve with a large enough effect in the repeat runs; inconclusive means weak or mixed curves, or effect the other way; inactive means no such curve, though single readings can be large or run the other way.
reported-property: outcome

Solved cases (4 shown):
C=CCSCC1Nc2cc(Cl)c(S(N)(=O)=O)cc2S(=O)(=O)N1 (stereo not given) :: inactive
CCCC(C)C(=O)O (stereo not given) :: inactive
CC(C)(C)CC(C)(C)N :: inactive
Cn1cnc2c(=O)[nH]c(N)nc21 :: inactive

Here is another compound to look at.
Data request: Annotate the compound CC1CCN(CCCC(=O)c2ccc(F)cc2)CC1 with its measured outcome.
Data returned: inactive

----------
# target-under-test: Aryl hydrocarbon receptor (Homo sapiens) (UniProt P35869)
# Sequence (P35869 whole entry, looked up): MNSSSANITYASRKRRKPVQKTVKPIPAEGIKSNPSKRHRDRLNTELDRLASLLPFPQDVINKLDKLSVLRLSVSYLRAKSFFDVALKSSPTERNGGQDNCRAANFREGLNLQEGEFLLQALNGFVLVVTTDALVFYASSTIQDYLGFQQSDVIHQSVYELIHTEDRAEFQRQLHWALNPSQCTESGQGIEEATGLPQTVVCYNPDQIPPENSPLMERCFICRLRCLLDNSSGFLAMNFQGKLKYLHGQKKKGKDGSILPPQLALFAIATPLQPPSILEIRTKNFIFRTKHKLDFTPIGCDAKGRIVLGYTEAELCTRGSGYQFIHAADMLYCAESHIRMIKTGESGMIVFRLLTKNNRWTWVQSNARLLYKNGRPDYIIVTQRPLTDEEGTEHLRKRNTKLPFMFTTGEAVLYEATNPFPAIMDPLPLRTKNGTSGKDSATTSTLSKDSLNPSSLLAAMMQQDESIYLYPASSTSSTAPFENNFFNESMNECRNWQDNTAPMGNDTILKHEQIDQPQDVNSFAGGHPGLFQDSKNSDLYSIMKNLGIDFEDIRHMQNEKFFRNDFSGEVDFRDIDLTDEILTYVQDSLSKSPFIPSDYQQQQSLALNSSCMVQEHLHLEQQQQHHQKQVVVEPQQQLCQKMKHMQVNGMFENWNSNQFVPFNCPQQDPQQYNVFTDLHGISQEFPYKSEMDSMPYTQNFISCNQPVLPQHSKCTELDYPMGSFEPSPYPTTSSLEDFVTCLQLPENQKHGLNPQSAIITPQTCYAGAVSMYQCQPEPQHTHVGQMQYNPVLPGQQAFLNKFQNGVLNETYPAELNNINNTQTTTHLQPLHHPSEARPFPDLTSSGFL
# assay-summary: qHTS assay to identify small molecule that activate the aryl hydrocarbon receptor (AhR) signaling pathway (AID 743085); also: nearly all actives have a fitted effect of over 15% in size;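 as to activation: HG2L7.5c1 human HepG2 liver cells with stably integrated DRE-driven firefly reporter; % is scaled to controls: 0 for no effect and ±100 for the full control effect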
# condition-summary: HepG2 AhR-luc (HG2L7.5c1), luciferase, 24 h; series mostly up to 70.3 µM
# Description: U.S. Tox21 Program National Center for Advancing Translational Sciences [NCATS] NIH Chemical Genomics Center [NCGC] U.S. Environmental Protection Agency [EPA] National Institutes of Environmental Health Sciences [NIEHS] National Toxicology Program [NTP] U.S. Food and Drug Administration [FDA] Tox21 Assay overview: The Aryl hydrocarbon Receptor (AhR), a member of the family of basic helix-loop-helix transcription factors, is crucial to adaptive responses to environmental changes. […]
Results filed as inconclusive are left out. Active and inactive are the calls of the source. Calls come from the whole dose curve; as a rule, active = well fitted activation curve with a large enough effect in the repeat runs; inconclusive = weak or mixed curves; inactive = no such curve, though single readings can be large or run the other way.
Pick one and only one: t for active, f for inactive

Please review the entries below; each comes with its answer.
CCC(=O)/C=C/c1ccc(OC)cc1 :: f
O=S(=O)(O)c1ccccc1O :: f
Nc1[nH]c(=O)ncc1F :: f
O=C(O)c1cccc(C(=O)O)n1 :: f
CCCC(C)C(=O)O (stereo not given) :: f
CCCCCCCCN(C)CCCCCCCC :: f
CCCCc1ccc2cccc(S(=O)(=O)O)c2c1 :: f
C#CC(O)C(CC)CCCC (stereo not given) :: f
Cc1onc(-c2ccccc2)c1-c1ccc(S(N)(=O)=O)cc1 :: f
COc1ccc(N=[N+]([O-])c2ccc(OC)cc2)cc1 :: t

Data request: Hello, I am checking results. What call was entered for CO[Si](OC)(OC)OC ?
Data returned: f

Data request: Hello, I am checking results. What call was entered for Oc1cc(O)c2c(c1)O[C@H](c1ccc(O)c(O)c1)[C@H](O)C2 ?
Data returned: f

Data request: Hello, I am checking results. What call was entered for OCc1ccccn1 ?
Data returned: f

Data request: Hello, I am checking results. What call was entered for CCCOCC(C)OCC(C)O (stereo not given) ?
Data returned: f

Data request: Hello, I am checking results. What call was entered for COC(=O)C1=C(C)NC(C)=C(C(=O)OCC(C)=O)C1c1ccccc1[N+](=O)[O-] (stereo not given) ?
Data returned: t

----------
# assay-summary: qHTS assay to identify small molecule agonists of the AP-1 signaling pathway - cell viability counter screen (AID 1159525); also: nearly all actives have a fitted effect of over 55% in size
# condition-summary: ME-180 (cervical carcinoma) AP-1-bla cells viability, ATP luminescence, 5 h; series mostly up to 76.8 µM
Inconclusive results are not listed. The source made the active and inactive calls. Calls come from the whole dose curve.
reported-property: viability change, negative = cytotoxic

Solved cases (6 shown):
CC(C)c1ccc2oc3nc(N)c(C(=O)O)cc3c(=O)c2c1 :: inactive
O=C(O)C1CCC1 :: inactive
CC(=O)c1ccc(C)cc1 :: inactive
O=C(O)/C=C/c1ccc(/C=C/C(=O)O)cc1 :: inactive
COc1cc(O)cc(O)c1 :: inactive
NC(=S)Nc1cccc2ccccc12 :: -1.31% [at 6.97 µM] (inactive)

Data request: Annotate the compound CNC(=O)c1c(I)c(NC(=O)CCCCC(=O)Nc2c(I)c(C(=O)O)c(I)c(C(=O)NC)c2I)c(I)c(C(=O)O)c1I with its measured viability change, negative = cytotoxic.
Data returned: inactive

----------
# assay-summary: Caspase-3/7 induction in CHO-K1 cells by small molecules, qHTS cell viability counter screen (AID 1346979); also: % is scaled to controls: 0 for no effect and ±100 for the full control effect; nearly all actives have a fitted effect of over 35% in size
# condition-summary: CellTiter-Fluor fluorescence, 17 h; series mostly up to 92.4 µM
Records with an inconclusive call do not appear. Activity calls are given as the source filed them. The call rests on the fitted dose curve; in most records, active means well fitted cell-killing curve with a large enough effect in the repeat runs; inconclusive means weak or mixed curves, or effect the other way; inactive means no such curve, though single readings can be large or run the other way.
reported-property: activity change, negative = cytotoxicity

Solved cases (6 shown):
CC(C)(C)N(CCO)CCO :: inactive
CCCCC1CCCCC(=O)O1 (stereo not drawn) :: inactive
CCCCCOC(=O)Nc1nc(=O)n([C@@H]2O[C@H](C)[C@@H](O)[C@H]2O)cc1F :: inactive
Cn1ccc2cc3c(cc21)CCN3C(=O)Nc1cccnc1 :: 5.05% [at 19 µM] (inactive)
COc1cccc(OC)c1 :: inactive
CCC(=O)Nc1cccc(N)c1 :: inactive

Data request: Annotate the compound CCC(C)OC(=O)N1CCCCC1CCO (stereo not drawn) with its measured activity change, negative = cytotoxicity.
Data returned: inactive

Data request: Annotate the compound CC(C=O)Cc1ccc(C(C)C)cc1 (stereo not drawn) with its measured activity change, negative = cytotoxicity.
Data returned: inactive

Data request: Annotate the compound FC(F)(F)C(F)(F)C(F)(F)C(F)(F)C(F)(F)C(F)(F)C(F)(F)C(F)(F)C(F)(F)C(F)(F)F with its measured activity change, negative = cytotoxicity.
Data returned: 7.28% [at 8.39 µM] (inactive)

Data request: Annotate the compound C[C@H]1O[C@@H](n2cc(F)c(=O)[nH]c2=O)[C@H](O)[C@@H]1O with its measured activity change, negative = cytotoxicity.
Data returned: inactive

Data request: Annotate the compound Cc1c(F)cc2c(=O)c(C(=O)O)cn3c2c1CCC3C (stereo not drawn) with its measured activity change, negative = cytotoxicity.
Data returned: inactive

Data request: Annotate the compound CCCC=O with its measured activity change, negative = cytotoxicity.
Data returned: inactive

Data request: Annotate the compound C=C(C)C1CC=C(C)C(O)C1 (stereo not drawn) with its measured activity change, negative = cytotoxicity.
Data returned: inactive
